- System: IGROV
- assayText: cells
- Assay type: cell-based
- experimentalConditions: read-out: LC50

compound	CC50 [nM]
COc1c(C)cc2c(c1O)[C@@H]1C3[C@@H]4SC[C@]5(NC(C)Cc6c5[nH]c5ccccc65)C(=O)COC[C@@H](c5c6c(c(C)c(OC(C)=O)c54)OCO6)N3[C@@H](O)[C@H](C2)N1C (some centres unmarked) [Compound 43]	9.88
COc1c(C)cc2c(c1O)[C@@H]1C3[C@@H]4SC[C@]5(NC(C)Cc6c5[nH]c5ccccc65)C(=O)COC[C@@H](c5c6c(c(C)c(OC(C)=O)c54)OCO6)N3[C@@H](O)[C@H](C2)N1C (some centres unmarked) [Compound 44]	93

---

Property: Papp A→B at 2 h, 50 μM; scope: individual molecules
- assayText: in vitro
- experimentalConditions: human, Caco-2
propertyLabel: Papp A→B at 2 h, 50 μM

molecule	propertyLabel	observedResult
CC(C)NCC(O)COc1cccc2ccccc12 (stereo not drawn) [propranolol, reference compound]	Papp A→B at 2 h, 50 μM	> 20 ×10⁻⁶ cm/s
COc1c(C)cc2c(c1O)[C@@H]1C3[C@@H]4SC[C@]5(C(=O)COC[C@@H](c6c7c(c(C)c(OC(C)=O)c64)OCO7)N3[C@@H](O)[C@H](C2)N1C)c1[nH]c2ccc(O)cc2c1CCN5C (stereo partly drawn)	Papp A→B at 2 h, 50 μM	7.77 ×10⁻⁶ cm/s
CNC(=C[N+](=O)[O-])NCCSCc1ccc(CN(C)C)o1 [ranitidine, reference compound]	Papp A→B at 2 h, 50 μM	< 5 ×10⁻⁶ cm/s
COc1ccc2[nH]c3c(c2c1)CCN[C@]31CS[C@@H]2c3c(OC(C)=O)c(C)c4c(c3[C@H](COCC1=O)N1C2[C@H]2c3c(cc(C)c(OC)c3O)C[C@@H]([C@@H]1O)N2C)OCO4 (stereo partly drawn)	Papp A→B at 2 h, 50 μM	< 1.18 ×10⁻⁶ cm/s
COc1ccc2c3c([nH]c2c1)[C@@]1(CS[C@@H]2c4c(OC(C)=O)c(C)c5c(c4[C@H](COCC1=O)N1C2[C@H]2c4c(cc(C)c(OC)c4O)C[C@@H]([C@@H]1O)N2C)OCO5)NCC3 (stereo partly drawn)	Papp A→B at 2 h, 50 μM	5 ×10⁻⁶ cm/s
COc1c(C)cc2c(c1O)[C@@H]1C3[C@@H]4SC[C@]5(NCCc6c5[nH]c5ccc(O)cc65)C(=O)COC[C@@H](c5c6c(c(C)c(OC(C)=O)c54)OCO6)N3[C@@H](O)[C@H](C2)N1C (stereo partly drawn)	Papp A→B at 2 h, 50 μM	< 0.32 ×10⁻⁶ cm/s

---

- Tested on: A498
- assayText: cells
- Type: cell-based
- experimentalConditions: Homo sapiens, A498, 48 h, read-out: LC50
Using CC50 as the sorting value, the categories are low-valued = under 10 nM, mid-valued = from 10 nM up to 50 nM, high-valued = 50 nM and over

compound	cat
COc1ccc2c3c([nH]c2c1)[C@@]1(CS[C@@H]2c4c(OC(C)=O)c(C)c5c(c4[C@H](COCC1=O)N1C2[C@H]2c4c(cc(C)c(OC)c4O)C[C@@H]([C@@H]1O)N2C)OCO5)NCC3 (stereo partly shown) [Compound 34]	high-valued
COc1c(C)cc2c(c1O)[C@@H]1C3[C@@H]4SC[C@]5(NCCc6c5[nH]c5cc(F)ccc65)C(=O)COC[C@@H](c5c6c(c(C)c(OC(C)=O)c54)OCO6)N3[C@@H](O)[C@H](C2)N1C (stereo partly shown) [Compound 32]	high-valued
COc1c(C)cc2c(c1O)[C@@H]1C3[C@@H]4SC[C@]5(NCCc6c5[nH]c5ccc(C)cc65)C(=O)COC[C@@H](c5c6c(c(C)c(OC(C)=O)c54)OCO6)N3[C@@H](O)[C@H](C2)N1C (stereo partly shown) [Compound 30]	low-valued
COc1c(C)cc2c(c1O)[C@@H]1C3[C@@H]4SC[C@]5(NCCc6c5[nH]c5ccccc65)C(=O)COC[C@@H](c5c6c(c(C)c(OC(C)=O)c54)OCO6)N3[C@@H](O)[C@H](C2)N1C (stereo partly shown) [Compound 26]	mid-valued
COc1c(C)cc2c(c1O)[C@@H]1C3[C@@H]4SC[C@]5(NCCc6c5[nH]c5c(OCc7ccccc7)cccc65)C(=O)COC[C@@H](c5c6c(c(C)c(OC(C)=O)c54)OCO6)N3[C@@H](O)[C@H](C2)N1C (stereo partly shown) [Compound 28]	high-valued
COc1c(C)cc2c(c1O)[C@@H]1C3[C@@H]4SC[C@]5(NCCc6c5[nH]c5ccccc65)C(=O)COC[C@@H](c5c6c(c(C)c(OC(=O)C(F)(F)C(F)(F)C(F)(F)F)c54)OCO6)N3[C@@H](O)[C@H](C2)N1C (stereo partly shown) [Compound 62]	mid-valued
COc1c(C)cc2c(c1O)[C@@H]1C3[C@@H]4SC[C@]5(NCCc6c5[nH]c5ccc(OCc7ccccc7)cc65)C(=O)COC[C@@H](c5c6c(c(C)c(OC(C)=O)c54)OCO6)N3[C@@H](O)[C@H](C2)N1C (stereo partly shown) [Compound 29]	high-valued
COc1c(C)cc2c(c1O)[C@@H]1C3[C@@H]4SC[C@]5(C(=O)COC[C@@H](c6c7c(c(C)c(OC(C)=O)c64)OCO7)N3[C@@H](O)[C@H](C2)N1C)c1[nH]c2ccc(O)cc2c1CCN5C (stereo partly shown) [Compound 33]	low-valued
COc1c(C)cc2c(c1O)[C@@H]1C3[C@@H]4SC[C@]5(NCCc6c5[nH]c5ccc(O)cc65)C(=O)COC[C@@H](c5c6c(c(C)c(OC(C)=O)c54)OCO6)N3[C@@H](O)[C@H](C2)N1C (stereo partly shown) [Compound 31]	mid-valued
COc1ccc2[nH]c3c(c2c1)CCN[C@]31CS[C@@H]2c3c(OC(C)=O)c(C)c4c(c3[C@H](COCC1=O)N1C2[C@H]2c3c(cc(C)c(OC)c3O)C[C@@H]([C@@H]1O)N2C)OCO4 (stereo partly shown) [Compound 27]	low-valued
